Assay: Percent purine synthesized in human B lymphoblast WI-L2 cells was determined
Format: functional
Design: concentration or dose not given beside the values
Assign MET whenever Activity does not fall below 80%; assign NOT MET whenever it does.

input: Hi, just wondering whether "Cl.N=C(N)c1n[nH]c([C@@H]2O[C@H](CO)[C@@H](O)[C@H]2O)n1" shows Activity of 80% or higher.
output: NOT MET

input: And then O=C1N=CN=C2C([C@@H]3O[C@H](CO)[C@@H](O)[C@H]3O)=NNC12 (stereo not given in full) , what is it?
output: NOT MET

input: And then C[C@H]1OC(n2cnc(C(=N)N)n2)[C@H](O)[C@@H]1O (stereo not given in full) , what is it?
output: MET

input: And then "NC(=O)c1n[nH]c([C@@H]2O[C@H](CO)[C@@H](O)[C@H]2O)n1" , what is it?
output: MET

input: And then "Nc1nc(O)c2nc(N)n([C@@H]3O[C@H](CO)[C@@H](O)[C@H]3O)c2n1" , what is it?
output: MET
